Values from patent US8628771B2

# TGT: bCA IV (Bos taurus)
# Construct: CA IV was isolated from bovine lung microsomes as described by Maren et al; from tissue; host or cells: bovine lung microsomes
# Sequence (Q95323 19-284): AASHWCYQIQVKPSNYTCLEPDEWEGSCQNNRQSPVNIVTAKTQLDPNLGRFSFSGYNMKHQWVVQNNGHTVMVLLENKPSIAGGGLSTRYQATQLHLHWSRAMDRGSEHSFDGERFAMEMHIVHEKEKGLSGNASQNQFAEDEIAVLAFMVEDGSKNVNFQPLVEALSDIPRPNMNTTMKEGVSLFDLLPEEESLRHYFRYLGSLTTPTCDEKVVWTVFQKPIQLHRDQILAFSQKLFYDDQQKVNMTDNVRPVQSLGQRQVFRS
# PROCEDURE_TEXT: CA esterase activity assay, isozyme bCA IV
# Assay type: biochemical, bovine
# PARTICULARS: Table 2; from bovine lung microsomes; read-out: KI bCA IV
MEASURED_PARAMETER: Ki (nM)
Respond with the bare value in nM.

Illustrative cases are given below, each with its answer.
Ask: Would you mind telling me what Ki value was observed for CC(C)(C)c1cc(-c2ccccc2)cc(-c2ccccc2)[n+]1CCc1ccc(S(N)(=O)=O)cc1 ?
Reply: 1000

Ask: What do you get for Cc1cc(C)[n+](-c2ccc(S(N)(=O)=O)cc2)c(C)c1C ?
Reply: 61

Ask: What do you get for NS(=O)(=O)c1ccc(S(=O)(=O)Nc2cccc3c(Cl)c[nH]c23)cc1 [indisulam, reference compound] ?
Reply: 65

***
Ask: Would you mind telling me what Ki value was observed for CCc1cc(-c2ccccc2)cc(CC)[n+]1-c1ccc(S(N)(=O)=O)cc1 ?
Reply: 182

Ask: What do you get for CCc1cc(-c2ccccc2)cc(CC)[n+]1CCc1ccc(S(N)(=O)=O)cc1 ?
Reply: 21

Ask: What do you get for Cc1cc(-c2ccccc2)cc(C)[n+]1Cc1ccc(S(N)(=O)=O)cc1 ?
Reply: 70

Ask: What do you get for NS(=O)(=O)c1ccc(C[n+]2c(-c3ccccc3)cccc2-c2ccccc2)cc1 ?
Reply: 1950

Ask: What do you get for CCCc1cc(-c2ccccc2)cc(CCC)[n+]1CCc1ccc(S(N)(=O)=O)cc1 ?
Reply: 82

====

# Lookup of reported [sulfonamide] in red blood cells, EI keyed by entry
# System: human red cells
# PARTICULARS: human, 30 min, 2 mM, pH 7.4
Respond with the bare value in µM.

Ask: Would you mind telling me what [sulfonamide] in red blood cells, EI value was observed for Cc1cc(C)[n+](-c2ccc(S(=O)(=O)Nc3nnc(S(N)(=O)=O)s3)cc2)c(C)c1 [Compound 71] ?
Reply: 0.5

Ask: What do you get for CCc1cc(-c2ccccc2)cc(CC)[n+]1-c1ccc(S(=O)(=O)Nc2nnc(S(N)(=O)=O)s2)cc1 [Compound 76] ?
Reply: 1.0

Ask: What do you get for Nc1ccc(S(=O)(=O)Nc2nnc(S(N)(=O)=O)s2)cc1 [Compound 15] ?
Reply: 122

Continue with the next compound.
Ask: Would you mind telling me what [sulfonamide] in red blood cells, EI value was observed for Cc1cc(C)[n+](-c2ccc(S(=O)(=O)Nc3nnc(S(N)(=O)=O)s3)cc2)c(C)c1C [Compound 89] ?
Reply: 0.5

====

# Lookup of reported pKi keyed by entry
# TGT: bCA IV (Bos taurus)
# Construct: CA IV was isolated from bovine lung microsomes as described by Maren et al; from tissue; host or cells: bovine lung microsomes
# PROCEDURE_TEXT: CA esterase activity assay, isozyme bCA IV
# Format: biochemical, bovine
# PARTICULARS: Table 3; from bovine lung microsomes, esterase assay method; read-out: KI bCA IV
# pKi = -log10(concentration in molar units)

Ask: Would you mind telling me what pKi value was observed for CC(C)c1cc(-c2ccccc2)cc(C(C)C)[n+]1-c1ccc(S(=O)(=O)Nc2nnc(S(N)(=O)=O)s2)cc1 [Compound 79] ?
Reply: 8.39

Ask: What do you get for CCCc1cc(-c2ccccc2)cc(CCC)[n+]1-c1ccc(S(=O)(=O)Nc2nnc(S(N)(=O)=O)s2)cc1 [Compound 77] ?
Reply: 8.09

***
Ask: Would you mind telling me what pKi value was observed for CCCCc1cc(-c2ccccc2)cc(-c2ccccc2)[n+]1-c1ccc(S(=O)(=O)Nc2nnc(S(N)(=O)=O)s2)cc1 [Compound 84] ?
Reply: 8.08

====

# TGT: hCA I (Homo sapiens, UniProt P00915)
# Construct: made in house; host or cells: Escherichia coli BL21 (DE3)
# Sequence (P00915 whole entry): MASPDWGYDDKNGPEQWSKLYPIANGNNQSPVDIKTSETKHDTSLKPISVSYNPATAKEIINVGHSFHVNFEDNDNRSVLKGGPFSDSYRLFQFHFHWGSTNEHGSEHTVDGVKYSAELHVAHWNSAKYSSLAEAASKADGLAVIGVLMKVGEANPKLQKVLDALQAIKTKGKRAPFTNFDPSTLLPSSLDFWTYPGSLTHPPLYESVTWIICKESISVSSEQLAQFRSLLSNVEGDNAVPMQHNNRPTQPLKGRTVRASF
# PROCEDURE_TEXT: CA esterase activity assay, isozyme hCA I
# Assay type: biochemical
# PARTICULARS: Table 2; human (cloned) isozymes; read-out: KI hCA I
MEASURED_PARAMETER: pKi
# pKi = -log10(concentration in molar units)

Ask: Would you mind telling me what pKi value was observed for Cc1cc(-c2ccccc2)cc(C)[n+]1Cc1ccc(S(N)(=O)=O)cc1 ?
Reply: 5.40

Ask: What do you get for CCCc1cc(-c2ccccc2)cc(CCC)[n+]1CCc1ccc(S(N)(=O)=O)cc1 ?
Reply: 5.15

Ask: What do you get for CCc1cc(-c2ccccc2)cc(CC)[n+]1CCc1ccc(S(N)(=O)=O)cc1 ?
Reply: 6.00

Ask: What do you get for Cc1cc(C(C)C)[n+](CCc2ccc(S(N)(=O)=O)cc2)c(C(C)C)c1 ?
Reply: 5.52

Ask: What do you get for CC(C)(C)c1cc(-c2ccccc2)cc(-c2ccccc2)[n+]1CCc1ccc(S(N)(=O)=O)cc1 ?
Reply: 4.04

Ask: What do you get for CCc1cc(-c2ccccc2)cc(CC)[n+]1Cc1ccc(S(N)(=O)=O)cc1 ?
Reply: 5.70

Ask: What do you get for CCCCc1cc(-c2ccccc2)cc(-c2ccccc2)[n+]1-c1ccc(S(N)(=O)=O)cc1 ?
Reply: 3.52

Ask: What do you get for CCc1cc(-c2ccccc2)cc(-c2ccccc2)[n+]1-c1ccc(S(N)(=O)=O)cc1 ?
Reply: 4.37

Ask: What do you get for NS(=O)(=O)c1ccc(CC[n+]2c(-c3ccccc3)cccc2-c2ccccc2)cc1 ?
Reply: 3.58

Ask: What do you get for NS(=O)(=O)c1ccc(CC[n+]2c(-c3ccccc3)cc(-c3ccccc3)cc2-c2ccccc2)cc1 ?
Reply: 3.57

Ask: What do you get for CCc1cc(-c2ccccc2)cc(CC)[n+]1-c1ccc(S(N)(=O)=O)cc1 ?
Reply: 5.22

====

# TGT: bCA IV (Bos taurus)
# Construct: CA IV was isolated from bovine lung microsomes as described by Maren et al; from tissue; host or cells: bovine lung microsomes
# PROCEDURE_TEXT: CA esterase activity assay, isozyme bCA IV
# Type: biochemical, bovine
# PARTICULARS: Table 2; from bovine lung microsomes; read-out: KI bCA IV
Please assign NO whenever Ki is at or above 200 nM, and YES whenever it is below.

Ask: Please check: Ki for Cc1cc(C)[n+](Cc2ccc(S(N)(=O)=O)cc2)c(C(C)C)c1 [Compound 40] , strictly under 200 nM or not?
Reply: YES

Ask: What do you get for CCc1cc(-c2ccccc2)cc(CC)[n+]1Cc1ccc(S(N)(=O)=O)cc1 [Compound 43] ?
Reply: YES

Ask: What do you get for Cc1cc(-c2ccccc2)cc(C)[n+]1CCc1ccc(S(N)(=O)=O)cc1 [Compound 58] ?
Reply: YES

***
Ask: Please check: Ki for CCCc1cc(-c2ccccc2)cc(-c2ccccc2)[n+]1Cc1ccc(S(N)(=O)=O)cc1 [Compound 48] , strictly under 200 nM or not?
Reply: NO

Ask: What do you get for Cc1cc(-c2ccccc2)cc(-c2ccccc2)[n+]1-c1ccc(S(N)(=O)=O)cc1 [Compound 32] ?
Reply: NO

Ask: What do you get for Cc1cc(C)[n+](Cc2ccc(S(N)(=O)=O)cc2)c(C)c1 [Compound 39] ?
Reply: YES

====

# TGT: hCA II (Homo sapiens)
# Construct: made in house; host or cells: Escherichia coli BL21 (DE3)
# PROCEDURE_TEXT: CA esterase activity assay, isozyme hCA II
# Format: biochemical
# PARTICULARS: Tables 1 and 3; read-out: KI against CA II
# Lookup of reported Ki keyed by entry

Ask: Would you mind telling me what Ki value was observed for NS(=O)(=O)c1nnc(NS(=O)(=O)c2ccc(-[n+]3c(-c4ccccc4)cccc3-c3ccccc3)cc2)s1 [Compound 88] ?
Reply: 3.13 to 5.96 nM

Ask: What do you get for Cc1cc(C(C)(C)C)[n+](-c2ccc(S(=O)(=O)Nc3nnc(S(N)(=O)=O)s3)cc2)c(C(C)(C)C)c1 [Compound 74] ?
Reply: 3.13 to 5.96 nM

Continue with the next molecule.
Ask: Would you mind telling me what Ki value was observed for Cc1cc(C)[n+](-c2ccc(S(=O)(=O)Nc3nnc(S(N)(=O)=O)s3)cc2)c(C(C)C)c1 [Compound 72] ?
Reply: 0.2 to 1.61 nM
